Assay: yeast display, Sf9 membrane polyspecificity reagent, FACS + sequencing; frameworks hold sequencing errors
measured-property: polyreactivity (PSR sort gate)

seq	polyreactivity (PSR sort gate)
QVQLVESGGGLVQAGGSLRLSCAASGITFTVYAMGWYRQAPGNEREVVAVINESGGSTYYADSVKGRFTISRDNAKNTVYLQMNSLKPEDTAVYYCNKTRVYVSSTYDYWGQGTQVTVSS	low polyreactivity
QVQLVESGGGLVQAGGSLRLSCAASGRIFGNTMGWYRQAPGKERELVAAITRSGVSTYYADSVKGRFTISRDNAKNTVYLQMNSLKPEDTAVYYCAKVYSRRSVLSRYGSWGQGTQVTVSS	high polyreactivity
QVQLQESGGGLVQAGGTLRLSCAASGTISFTRDMGWYRQAPGKEREFVASIDRGASTYYADSVKGRFTISRDNAKNTVYLQMNSLKPEDNAVYYRAVIAPFYSSFAYWGQGTQVTVSS	high polyreactivity
QVQLVESGGGLVQAGGSLRLSCAASGSIFEGYGMGWYRQAPGKERELVASISTGDSTKYADSVKGRFTISRDNAKNTVYLQMNSLKPEDTAVYYCNAPYFYLPHKYDYWGQGTQVTVSS	low polyreactivity

Q) Which polyreactivity (PSR sort gate) is reported for this sequence? "QVQLVESGGGLVQAGGSLRLSCAASGRIFNGYPIGWYIQAPGKEREFVATISRSGGCTYYADSVKGRFTISRDNAKNTVYLQMISLKPEDTAVYYCAKTYPAKWEYDYWGQGTQVTVSS"
A) low polyreactivity

Q) Which polyreactivity (PSR sort gate) is reported for this sequence? "QVQLVESGGGLVQAGGSLRLSCAASGLIFAYNTMGWYRQAPGKERELVAGITSSGSTYYADSVKGRFTISRDNEKNTVYLQMNSLKPEDTAVYYCAAEWDDGRSWYWYYLVGFEYWGQGTQVTVSS"
A) high polyreactivity

Q) Which polyreactivity (PSR sort gate) is reported for this sequence? "QVQLVESGGGLVQAGGSLRLSCAASGSIYYSYAMGWYRQAPGKERELVARITKRGGRTYYADSVKGRFTISRDNAKNTVYLQMNSLKPEDTAVYYCAATTGHRTYRYYYWGQGTQVTVSS"
A) high polyreactivity

Q) Which polyreactivity (PSR sort gate) is reported for this sequence? "QVQLVESGGGLVQAGGSLRLSCAASGSIFFDYALGWYRQAPGKERELVARITSSDSTNYADSVKGRFTISRDNAKNTVYLQMNSLKPEDTAVYYCNKDSTGDGYDYWGQGTQVTVSS"
A) low polyreactivity

Q) Which polyreactivity (PSR sort gate) is reported for this sequence? "QVQLVESGGGLVQAGGSLRLSCAASGRIFYRNAMGWYRQAPGKERELVAAISSSTGSTYYADSVKGRFTISRDNAKNTVYLQMNSLKPEDTAVYYCNTARNRARYYYWGQGTQVTVSS"
A) high polyreactivity

Q) Which polyreactivity (PSR sort gate) is reported for this sequence? "QVQLVESGGGLVQAGGSLRLSCAASGRTVLVYTMGWYRQAPGKERELVAAISWSDGSTYYADSVKGRFTMSRDNAKNTVYLHMNSLKPEDTAVYYCAARTFSAFWRGGYDYWGQGTQVTVSS"
A) low polyreactivity

Q) Which polyreactivity (PSR sort gate) is reported for this sequence? "QVQLVESGGGLVQAGGSLRLSCAASGSTFPRNAMGWYRQAPGKERELVATITSSGGGTYYADSVKGRFTISRDNAKNTVYLQMNSLKPEDTAVYYCNAAGPAGDAFDYWGQGTQVTVSS"
A) low polyreactivity

----------
Experiment: yeast display, Sf9 membrane polyspecificity reagent, FACS + sequencing; frameworks hold sequencing errors
measured-property: polyreactivity (PSR sort gate)

seq	polyreactivity (PSR sort gate)
QVQLVESGGGLVQAGGSLRLSCAASGFTLQGYAMGWYRQAPGKERELVAAIRWIGTSTYYADSVKGRFTISRDNAKNTVYLQMNSLKPEDTAVYYCAAVVRRVRPEGSYNRWGHDYWGQGTQVTVSS	high polyreactivity
QVQLVESGGGLVQAGGSLRLSCAASGSILYLYAMGWYRPAPGKERELVAAITRIGGSTYYADSVKGRFTISRDNAKNTVYLQMNSLKPEDTAVYYCAAGGTARDDSWGQGTQVTVSS	low polyreactivity
QVQLVESGGGLVQAGGSLRLSCAASGSIFVPYAMGWYRQAPGKERELVAAINSGGGTDYADSVKGRFTISRDNAKNTVYLQMNSLKPEDTAVYYCAKSRVAYRGWDHKYYIYDYWGQGTQVTVSS	low polyreactivity
QVQLVESGGGLVQAGGSLRLSCADSGITFWTNTMGWYRQAPGKERELVAVITSGGTTNYADSVKGRFTISRDNAKNTVYLQMNSLKPEDTAVYYCAKKYGYFGLHGYWGQGTQVTVSS	high polyreactivity

Q) Which polyreactivity (PSR sort gate) is reported for this sequence? "QVQLVESGGDLVQAGGSLRLSCAASGSIFYINAMGWYRQAPGKERELVASISYSGTSTYYADSVKGRFTISRDNAKNTVYLQMNSLKPEDTAVYYCNAEDTPGAGDGYWGQGTQVTVSS"
A) low polyreactivity

Q) Which polyreactivity (PSR sort gate) is reported for this sequence? "QVQLVESGGGLVQAGGSLRLSCAASGSMFTNYAMGWYRQAPGQERELVAAISVGGGRTYYADSVKGRFTISRDNAQNTVYVQLNSLKPEDTAVYYCAARYPFGSLGRYGYWGQGTQVTVSS"
A) high polyreactivity

----------
Experiment: yeast display, Sf9 membrane polyspecificity reagent, FACS + sequencing; frameworks hold sequencing errors
measured-property: polyreactivity (PSR sort gate)

Examples with their reported polyreactivity (PSR sort gate) follow.
seq	value-observed
QVQLVESGGGLVQAGGSLRLSCAASGSTVYHNAMGRYRQAPGKERELVAAITWSGSRTYYADSVKGRFTISRDNAKNTVYLQMNSLKPEDTAVYYCAARDYWGQGTQVTVSS	high polyreactivity
QVQLVESGGGLVQAGGSLRLSCAASGRTIGLNGMGWYRQAPGKERELVAGISLSGGSTNYADSVKGRFTISRDNAKNTVYLQMNSLKPEDTAVYYCAADFVYYVVNDFGWSYAYEYWGQGTQVTVSS	low polyreactivity
QVQLVESGGGLVQAGGSLRLSCAASGRIQYNAMGWYRQAPGKEREFVAAISWSGGTTYYADSVKGRFTISRDNAKNTVYLQMNRLKPEDTAVYYCATPYTHWGQGTQVTVSS	high polyreactivity
QVQHEETGGGLVQAGGSLRLSCAASGSTYRKNSMGWYRPAPGKERAFVAAISRSGGSTYYADSVKGRFTISRDNAKNTVYLQMNSLKPEDTAVYYCAASYYQHQYSYELGDYWGQGTQVTVSS	low polyreactivity
QVQLVESGGGLVQAGGSLRLSCAASGITFYKYVMGWYRQAPGKERELVAAISSVGSTYYADSVKGRFTISRDNAKNTVYLQMNSLKPEDTAVYYCAAKYWKWYHYGFGYWGQGTQVTVSS	high polyreactivity

# evaluate next
Q) Which polyreactivity (PSR sort gate) is reported for this sequence? "QVQLVESGGGLVQAGGSLRLSCAASGIILYYYAMGWYRQAPGKERELVASISRGDSTNYADSVKGRFTISRDNAKNTVYLQMNSLKPEDTAVYCNKDYLPSLYRGFDYWGQGTQVTVSS"
A) low polyreactivity

----------
Experiment: yeast display, Sf9 membrane polyspecificity reagent, FACS + sequencing; frameworks hold sequencing errors
measured-property: polyreactivity (PSR sort gate)

Examples with their reported polyreactivity (PSR sort gate) follow.
seq	polyreactivity (PSR sort gate)
QVQLVESGGGLVQAGGSLRLSCAASGSIFRSYAMGWYRQAPGKERQLVARISKRGGSTYYADSVKGRFTISRENAKNTVYLQMNSLKPEDSAVYYCNASYFRYRYNRYVYWGQGTQVTVSS	high polyreactivity
QVQLVESGGGLVQAGGSLRLSCAACGSTFWYYVMGWYRQAPGKERELVAAISTRGDSTYYADSVKGRFTISRDNAKNTVYLQMNSLKAEDTAVYYCAKSRQSSGRVRFDYWGQGTQVTVSS	low polyreactivity
QVQLVESGGGLVQAGGSLRLSCAAYGRIIYLNAMGWYRQAPGKERELVATISSSGGTTNYADSVKGRFTISRDNAKNTVYLQMNSLKPEDTAVYYCAAKFVGTTVSEYGYWGQGTQVTVSS	low polyreactivity
QVQLVESGGGLVKAGGSLRLSCAASGRTFVYNAMGWYRQAPGKERELVADIDGGGDRTYYADSVKGRFTISRDNAKNKVFLQMNSLKPEDTAVYYCARDPGDTYYYSYPEGDYWGQGTQVTVSS	low polyreactivity

Q) Which polyreactivity (PSR sort gate) is reported for this sequence? "QVQLVESGGGLVQAGGSLRLSCAASGSTFNGYAMGWYRQAPGKERELVAAISSDGGSTYYADSVKGRFTISRDNAKNTVYLQMNSLKPEYTAVYYCAALVYVSGYGYYYWGQGTQVTVSS"
A) high polyreactivity

Q) Which polyreactivity (PSR sort gate) is reported for this sequence? "QVQLVESGGGLVQAGGSLRLCCAASGITFALNAMRWYRQAPGNERELLAAISWSGDSTYYADSVKGRITIARDNAKNTVYLQMNSLKPEDTAVYYCAAVAYLNWTPHYYWGQGTQVTVSS"
A) low polyreactivity

Q) Which polyreactivity (PSR sort gate) is reported for this sequence? "QVQLVESGGGLVQAGGSLRLSCAASGSIFRGYSMGWYRQAPGKERELVAAINTSGGRTYYADSVKGRFTISRDNAKNTVYLQMNSLKPEDTAVFYCATEYYQAKREDYWGQGTQVTVSS"
A) high polyreactivity

Q) Which polyreactivity (PSR sort gate) is reported for this sequence? "QVQLVESGGGLDQAGGSLRLSCAASGFTFRKNAMGWYRQAPGKERELVAVISYSGGSTYYADSVNGRFTISRDSANNTVYLQMNSQKPEDSAVYYCNAVGWTRYWRIGWSAYYYWGQGTQVTVSS"
A) high polyreactivity

Q) Which polyreactivity (PSR sort gate) is reported for this sequence? "QVQLVESGGGLVQAGGSLRLSCPACGRTFNRYAMGWYRQAPGKERELVATISNSGRTYYADSVKGRFTISRDNAKNTVYLQMNSLKPEDTAVYYCAAQLPSYYKYPRHDYWGKGTQVTVSS"
A) high polyreactivity

Q) Which polyreactivity (PSR sort gate) is reported for this sequence? "QVQLHGSGGGLVQAGCSLRVSCAASGYIFQNVPMGWTRQAPGKERELVAGIDNGTSTNYADSVNGRFTISRDNAKNTVYMQMNSLKPEDTAVYYCAAAGQADDTLGYWGQGTQVTVSS"
A) low polyreactivity

Q) Which polyreactivity (PSR sort gate) is reported for this sequence? "QVQLVESGGGLVQAGGSLRLSCAASGFIFTRYAMGWYRQAPGKERELVARISGGGGSTYYADSVKGRFTISRDNAKNTVYLQMNSLKPEDTAVYYCNARWYPYISRYGIEARYDYWGQGTQVTVSS"
A) high polyreactivity

Data origin: the nanobody polyreactivity screen of Harvey et al. (2022)
